Attribution: paper PMC9667936

This section presents compounds with their documented ΔH values.
Target: 14-3-3γ (Homo sapiens, UniProt P61981)
Construct: made in house; host or cells: E. coli NiCo21 (DE3)
Sequence (P61981 whole entry): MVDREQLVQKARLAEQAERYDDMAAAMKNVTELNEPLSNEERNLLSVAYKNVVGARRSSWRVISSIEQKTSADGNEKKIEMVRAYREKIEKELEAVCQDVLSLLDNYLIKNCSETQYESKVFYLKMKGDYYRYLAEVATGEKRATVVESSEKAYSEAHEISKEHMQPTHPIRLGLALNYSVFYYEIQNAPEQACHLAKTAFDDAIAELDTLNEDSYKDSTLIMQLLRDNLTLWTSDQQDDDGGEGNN
Experiment: Isothermal titration calorimetry (ITC) of 14-3-3 binding to peptide
Details: Table S6 (unit given in Fig. 4 legend); ITC, 25 °C; average of two runs
Where a SMILES comes first, the peptide text is derived from it. [ ]: non-standard residue; d: D form. ξ: configuration not given here. Phe(4-NO2) = N[C@@H](Cc1ccc([N+](=O)[O-])cc1)C(=O)O; ξAla(4-thiazolyl) = NC(Cc1cscn1)C(=O)O; pS = N[C@@H](COP(=O)(O)O)C(=O)O; β3hS = N[C@@H](CO)CC(=O)O; Nva = CCC[C@H](N)C(=O)O; βAla = NCCC(=O)O

{"columns": ["compound", "ΔH"],
 "data": [
  ["CCC[C@H](NC(=O)[C@H](N)CCCCN)C(=O)N[C@@H](Cc1ccc([N+](=O)[O-])cc1)C(=O)NC(Cc1cscn1)C(=O)N[C@@H](COP(=O)(O)O)C(=O)N[C@@H](Cc1ccc(O)cc1)C(=O)N[C@@H](CO)CC(=O)NCCC(=O)N[C@@H](Cc1ccc([N+](=O)[O-])cc1)C(=O)N[C@@H](CCCCN)C(N)=O (stereo partly drawn) [4a] (H-[dK][Nva][Phe(4-NO2)][ξAla(4-thiazolyl)][pS]Y[β3hS][βAla][Phe(4-NO2)]K-NH2; N-terminus and C-terminus assumed)", "-6,64 kcal mol^-1"]
]}

Would you kindly look at the next entry?
Ask: What value of ΔH has been recorded for this entry: CCC[C@H](NC(=O)[C@H](N)CCCCN)C(=O)N[C@@H](Cc1ccc([N+](=O)[O-])cc1)C(=O)NC(Cc1cscn1)C(=O)N[C@@H](COP(=O)(O)O)C(=O)N[C@@H](Cc1ccccc1)C(=O)N[C@@H](CO)CC(=O)NCCC(=O)N[C@@H](Cc1ccc([N+](=O)[O-])cc1)C(=O)N[C@@H](CCCCN)C(N)=O (stereo partly drawn) [4b] (H-[dK][Nva][Phe(4-NO2)][ξAla(4-thiazolyl)][pS]F[β3hS][βAla][Phe(4-NO2)]K-NH2; N-terminus and C-terminus assumed)
Result: -7,40 kcal mol^-1

###

Molecular target: 14-3-3γ (Homo sapiens, UniProt P61981)
Construct: made in house; host or cells: E. coli NiCo21 (DE3)
Experiment: Isothermal titration calorimetry (ITC) of 14-3-3 binding to peptide
Settings: Table S5; ΔG of peptide minus ΔG of peptide 1, ITC; mean of n = 2
Where a SMILES comes first, the peptide text is derived from it. [ ]: non-standard residue; d: D form. ξ: configuration not given here. Phe(4-NO2) = N[C@@H](Cc1ccc([N+](=O)[O-])cc1)C(=O)O; ξAla(4-thiazolyl) = NC(Cc1cscn1)C(=O)O; pS = N[C@@H](COP(=O)(O)O)C(=O)O; β3hS = N[C@@H](CO)CC(=O)O; Nva = CCC[C@H](N)C(=O)O; βAla = NCCC(=O)O
measured.endpoint: ΔΔG to 1 (kcal/mol)
Hi! Could you send only the number? It should be in kcal/mol, unit omitted.

Ask: What value of ΔΔG to 1 has been recorded for this entry: CCC[C@H](NC(=O)[C@H](N)CCCCN)C(=O)N[C@@H](Cc1ccc([N+](=O)[O-])cc1)C(=O)NC(Cc1cscn1)C(=O)N[C@@H](COP(=O)(O)O)C(=O)N[C@@H](Cc1ccc([N+](=O)[O-])cc1)C(=O)N[C@@H](CO)CC(=O)NCCC(=O)N[C@@H](Cc1ccccc1)C(=O)N[C@@H](CCCCN)C(N)=O (stereo partly drawn) [5b] (H-[dK][Nva][Phe(4-NO2)][ξAla(4-thiazolyl)][pS][Phe(4-NO2)][β3hS][βAla]FK-NH2; N-terminus and C-terminus assumed)
Result: 2.1

###

Molecular target: 14-3-3γ (Homo sapiens, UniProt P61981)
Construct: made in house; host or cells: E. coli NiCo21 (DE3)
Assay: Isothermal titration calorimetry (ITC) of 14-3-3 binding to peptide
Settings: Table S6 (unit as in Table S5); ITC, 25 °C; run 2
Where a SMILES comes first, the peptide text is derived from it. [ ]: non-standard residue; d: D form. ξ: configuration not given here. Phe(4-NO2) = N[C@@H](Cc1ccc([N+](=O)[O-])cc1)C(=O)O; ξAla(4-thiazolyl) = NC(Cc1cscn1)C(=O)O; pS = N[C@@H](COP(=O)(O)O)C(=O)O; β3hS = N[C@@H](CO)CC(=O)O; Nva = CCC[C@H](N)C(=O)O; βAla = NCCC(=O)O
measured.endpoint: Kd

Ask: What value of Kd has been recorded for this entry: CCC[C@H](NC(=O)[C@H](N)CCCCN)C(=O)N[C@@H](Cc1ccc([N+](=O)[O-])cc1)C(=O)NC(Cc1cscn1)C(=O)N[C@@H](COP(=O)(O)O)C(=O)N[C@@H](Cc1ccc(O)cc1)C(=O)N[C@@H](CO)CC(=O)NCCC(=O)N[C@@H](Cc1ccc([N+](=O)[O-])cc1)C(=O)N[C@@H](CCCCN)C(N)=O (stereo partly drawn) [4a] (H-[dK][Nva][Phe(4-NO2)][ξAla(4-thiazolyl)][pS]Y[β3hS][βAla][Phe(4-NO2)]K-NH2; N-terminus and C-terminus assumed)
Result: 6,09E-08 M

###

Target: 14-3-3γ (Homo sapiens)
Construct: made in house; host or cells: E. coli NiCo21 (DE3)
Test: Fluorescence anisotropy (FA) binary binding study: 14-3-3 titrated to fluorescein-labelled peptide
Details: Table S3; KD / KD of previous peptide; replicate 1
Where a SMILES comes first, the peptide text is derived from it. [ ]: non-standard residue; d: D form. The star is where a group is joined. ξ: configuration not given here. FITC = O=C1OC2(c3ccc(O)cc3Oc3cc(O)ccc32)c2ccc(NC(=S)*)cc21; Phe(4-NO2) = N[C@@H](Cc1ccc([N+](=O)[O-])cc1)C(=O)O; ξAla(4-thiazolyl) = NC(Cc1cscn1)C(=O)O; pS = N[C@@H](COP(=O)(O)O)C(=O)O; β3hS = N[C@@H](CO)CC(=O)O; Nva = CCC[C@H](N)C(=O)O; AEA = NCCOCC(=O)O; βAla = NCCC(=O)O
measured.endpoint: Fold change to previous

Ask: What value of Fold change to previous has been recorded for this entry: CCC[C@H](NC(=O)[C@@H](CCCCN)NC(=O)COCCNC(=S)Nc1ccc2c(c1)C(=O)OC21c2ccc(O)cc2Oc2cc(O)ccc21)C(=O)N[C@@H](Cc1ccc([N+](=O)[O-])cc1)C(=O)NC(Cc1cscn1)C(=O)N[C@@H](COP(=O)(O)O)C(=O)N[C@@H](Cc1ccc([N+](=O)[O-])cc1)C(=O)N[C@@H](CO)CC(=O)NCCC(N)=O (stereo partly drawn) [2f] ({FITC-AEA}-[dK][Nva][Phe(4-NO2)][ξAla(4-thiazolyl)][pS][Phe(4-NO2)][β3hS][βAla]-NH2)
Result: 12,69

###

Molecular target: 14-3-3γ (Homo sapiens)
Construct: made in house; host or cells: E. coli NiCo21 (DE3)
Experiment: Fluorescence anisotropy (FA) binary binding study: 14-3-3 titrated to fluorescein-labelled peptide
Conditions: Table S3; KD / KD of previous peptide; replicate 2
Where a SMILES comes first, the peptide text is derived from it. [ ]: non-standard residue; d: D form. The star is where a group is joined. ξ: configuration not given here. FITC = O=C1OC2(c3ccc(O)cc3Oc3cc(O)ccc32)c2ccc(NC(=S)*)cc21; Phe(4-NO2) = N[C@@H](Cc1ccc([N+](=O)[O-])cc1)C(=O)O; ξAla(4-thiazolyl) = NC(Cc1cscn1)C(=O)O; pS = N[C@@H](COP(=O)(O)O)C(=O)O; β3hS = N[C@@H](CO)CC(=O)O; Nva = CCC[C@H](N)C(=O)O; AEA = NCCOCC(=O)O; βAla = NCCC(=O)O
measured.endpoint: Fold change to previous

Ask: What value of Fold change to previous has been recorded for this entry: CCC[C@H](NC(=O)[C@@H](CCCCN)NC(=O)COCCNC(=S)Nc1ccc2c(c1)C(=O)OC21c2ccc(O)cc2Oc2cc(O)ccc21)C(=O)N[C@@H](Cc1ccc([N+](=O)[O-])cc1)C(=O)NC(Cc1cscn1)C(=O)N[C@@H](COP(=O)(O)O)C(=O)N[C@@H](Cc1ccc([N+](=O)[O-])cc1)C(=O)N[C@@H](CO)CC(=O)NCCC(=O)N[C@@H](Cc1ccc([N+](=O)[O-])cc1)C(N)=O (stereo partly drawn) [2e] ({FITC-AEA}-[dK][Nva][Phe(4-NO2)][ξAla(4-thiazolyl)][pS][Phe(4-NO2)][β3hS][βAla][Phe(4-NO2)]-NH2)
Result: 7,13
